- experiment summary: Dynamic vapour sorption (moisture sorption) with XRPD of post-DVS material
- Format: physicochemical
- measurement parameters: from DVS moisture sorption
- Description: Dynamic vapour sorption experiment was carried out by first holding the sample at 40% RH and 25.0° C. until an equilibrium weight was reached or for a maximum of four hours. The sample was then subjected to an isothermal (at 25.0° C.) adsorption scan from 40 to 90% RH in steps of 10%. The sample was allowed to equilibrate to an asymptotic weight at each point for a maximum of four hours. […] The sample was then dried for no less than two hours at 60.0° C. and the resulting solid analyzed by XRPD.
metric name: Hygroscopicity (in words)

O=C([O-])CNC(=O)c1ncc(-c2cccc(F)c2)cc1O.[Na+] [Salt VIII] | moderately hydroscopic
O=C([O-])CNC(=O)c1ncc(-c2cccc(F)c2)cc1O.[Na+] [Salt IX] | moderately hydroscopic

###

- experiment summary: Thermal stability experiments (solid stored at 60 °C; XRPD and HPLC)
- measurement parameters: solid, 60 °C, seven days, HPLC
metric name: Chemical stability / degradation by HPLC after storage at 60 °C for seven days (in words)

O=C(O)CNC(=O)c1ncc(-c2cccc(F)c2)cc1O [Form G] | chemically stable
O=C([O-])CNC(=O)c1ncc(-c2cccc(F)c2)cc1O.[Na+] [Salt IX] | no degradation
O=C([O-])CNC(=O)c1ncc(-c2cccc(F)c2)cc1O.O=C([O-])CNC(=O)c1ncc(-c2cccc(F)c2)cc1O.[Ca+2] [Salt I] | chemically stable
O=C([O-])CNC(=O)c1ncc(-c2cccc(F)c2)cc1O.[Na+] [Salt VIII] | no degradation

###

- experiment summary: Dynamic vapour sorption (moisture sorption) with XRPD of post-DVS material
- Format: physicochemical
- measurement parameters: DVS, 25.0 °C, 90% RH
Please assign a class to every record based on measured Moisture Sorption 90% RH, with ranges lowest: < 3 wt %; middle: ≥ 3 wt % and < 6 wt %; highest: ≥ 6 wt %

Some solved cases for reference:
O=C([O-])CNC(=O)c1ncc(-c2cccc(F)c2)cc1O.O=C([O-])CNC(=O)c1ncc(-c2cccc(F)c2)cc1O.[Ca+2] [Salt I] | middle
O=C([O-])CNC(=O)c1ncc(-c2cccc(F)c2)cc1O.[Na+] [Salt IX] | lowest

Classify this compound: O=C([O-])CNC(=O)c1ncc(-c2cccc(F)c2)cc1O.[Na+] [Salt VI] lowest

Please let me know in which category the item O.O=C([O-])CNC(=O)c1ncc(-c2cccc(F)c2)cc1O.[Na+] [Salt IV] belongs. highest

Lab note: sort O=C(O)CNC(=O)c1ncc(-c2cccc(F)c2)cc1O [Form D] into the matching Moisture Sorption 90% RH band. lowest

###

- experiment summary: Dynamic vapour sorption (moisture sorption) with XRPD of post-DVS material
- Type: physicochemical
- measurement parameters: DVS, from uptake at 60% and 90% RH
metric name: Moisture Sorption (hygroscopicity in words)

O=C([O-])CNC(=O)c1ncc(-c2cccc(F)c2)cc1O.O=C([O-])CNC(=O)c1ncc(-c2cccc(F)c2)cc1O.[Ca+2] [Salt I] | (moderately
O=C([O-])CNC(=O)c1ncc(-c2cccc(F)c2)cc1O.[K+] [Salt III] | (moderately
O.O=C([O-])CNC(=O)c1ncc(-c2cccc(F)c2)cc1[O-].[Na+].[Na+] [Salt V] | (moderately
O.O=C([O-])CNC(=O)c1ncc(-c2cccc(F)c2)cc1O.[Na+] [Salt IV] | (moderately

###

Recorded Moisture Sorption, one value per entry.
- experiment summary: Dynamic vapour sorption (moisture sorption) with XRPD of post-DVS material
- Assay type: physicochemical
- measurement parameters: 60% RH

O.O=C([O-])CNC(=O)c1ncc(-c2cccc(F)c2)cc1[O-].[Na+].[Na+] [Salt V] | 60% RH: 6.0 wt %
O=C([O-])CNC(=O)c1ncc(-c2cccc(F)c2)cc1O.[Na+] [Salt IX] | 60% RH: 0.3 wt %
O.O=C([O-])CNC(=O)c1ncc(-c2cccc(F)c2)cc1O.[Na+] [Salt IV] | 60% RH: 6.1 wt %

Please supply the value of reported Moisture Sorption for the item O=C([O-])CNC(=O)c1ncc(-c2cccc(F)c2)cc1O.O=C([O-])CNC(=O)c1ncc(-c2cccc(F)c2)cc1O.[Ca+2] [Salt I] 60% RH: 1.0 wt %

Return reported Moisture Sorption. Input compound: O=C([O-])CNC(=O)c1ncc(-c2cccc(F)c2)cc1O.[Na+] [Salt VI] 60% RH: 0.3 wt %

Let me know recorded Moisture Sorption for O=C([O-])CNC(=O)c1ncc(-c2cccc(F)c2)cc1O.[K+] [Salt III] , thanks. 60% RH: 2.1 wt %

Indicate its recorded Moisture Sorption; the compound in question is O=C([O-])CNC(=O)c1ncc(-c2cccc(F)c2)cc1O.[Na+] [Salt VIII] 60% RH: 1.0 wt %

###

- experiment summary: Aqueous solubility (slurry in deionized water at room temperature, filtrate by HPLC, solids by XRPD)
- measurement parameters: deionized water, water, thermodynamic from solid, Solubility, room temperature, equilibrated with stirring, filtrate by HPLC
metric name: Solubility (µg/mL)
Answer format: numeric, µg/mL implied, no suffix.

Specify measured Solubility for O=C(O)CNC(=O)c1ncc(-c2cccc(F)c2)cc1O [Form G] . 61

###

- experiment summary: Dynamic vapour sorption (moisture sorption) with XRPD of post-DVS material
- Assay type: physicochemical
- measurement parameters: 90% RH
metric name: Moisture Sorption

A selection of reference data follows.
O=C([O-])CNC(=O)c1ncc(-c2cccc(F)c2)cc1O.[Na+] [Salt VI] | 90% RH: 0.7 wt %
O=C([O-])CNC(=O)c1ncc(-c2cccc(F)c2)cc1O.[K+] [Salt III] | 90% RH: 4.5 wt %
O=C([O-])CNC(=O)c1ncc(-c2cccc(F)c2)cc1O.O=C([O-])CNC(=O)c1ncc(-c2cccc(F)c2)cc1O.[Ca+2] [Salt I] | 90% RH: 4.1 wt %

Give Moisture Sorption for the following compound: O.O=C([O-])CNC(=O)c1ncc(-c2cccc(F)c2)cc1[O-].[Na+].[Na+] [Salt V] 90% RH: 6.4 wt %

Give the reported value of Moisture Sorption for this record: O.O=C([O-])CNC(=O)c1ncc(-c2cccc(F)c2)cc1O.[Na+] [Salt IV] 90% RH: 6.5 wt %

For O=C([O-])CNC(=O)c1ncc(-c2cccc(F)c2)cc1O.[Na+] [Salt IX] , write its Moisture Sorption. 90% RH: 0.3 wt %

Please give measured Moisture Sorption of the following entry: O=C([O-])CNC(=O)c1ncc(-c2cccc(F)c2)cc1O.[Na+] [Salt VIII] 90% RH: 2.7 wt %

###

- experiment summary: Dynamic vapour sorption (moisture sorption) with XRPD of post-DVS material
- Type: physicochemical
- measurement parameters: DVS, 25.0 °C, 60% RH
Classify as follows. Reported Moisture adsorbed at 60% RH greater than or equal to 1 wt %: fulfilled. Reported Moisture adsorbed at 60% RH below: not fulfilled.

Examples with answers:
O=C([O-])CNC(=O)c1ncc(-c2cccc(F)c2)cc1O.[Na+] [Salt VI] | not fulfilled
O=C(O)CNC(=O)c1ncc(-c2cccc(F)c2)cc1O [Form D] | not fulfilled
O=C([O-])CNC(=O)c1ncc(-c2cccc(F)c2)cc1O.[Na+] [Salt IX] | not fulfilled
O=C(O)CNC(=O)c1ncc(-c2cccc(F)c2)cc1O [Form A] | not fulfilled
O.O=C([O-])CNC(=O)c1ncc(-c2cccc(F)c2)cc1[O-].[Na+].[Na+] [Salt V] | fulfilled

Item O=C([O-])CNC(=O)c1ncc(-c2cccc(F)c2)cc1O.[K+] [Salt III] with Moisture adsorbed at 60% RH of 1 wt % or above? fulfilled

Quick check, Moisture adsorbed at 60% RH >= 1 wt %? O.O=C([O-])CNC(=O)c1ncc(-c2cccc(F)c2)cc1O.[Na+] [Salt IV] fulfilled

Check if Moisture adsorbed at 60% RH >= 1 wt % (inclusive). Item: O=C(O)CNC(=O)c1ncc(-c2cccc(F)c2)cc1O [Form G] not fulfilled

###

- experiment summary: Competitive slurry of calcium, potassium and sodium salts in acetone
- Type: physicochemical
- measurement parameters: acetone (50 μL water added for potassium and sodium salts), room temperature, one and seven days
metric name: Outcome of competitive slurry of salts (in words)

O=C([O-])CNC(=O)c1ncc(-c2cccc(F)c2)cc1O.[K+] [Salt III] | most stable polymorphs
O=C([O-])CNC(=O)c1ncc(-c2cccc(F)c2)cc1O.O=C([O-])CNC(=O)c1ncc(-c2cccc(F)c2)cc1O.[Ca+2] [Salt I] | most stable polymorphs
O.O=C([O-])CNC(=O)c1ncc(-c2cccc(F)c2)cc1[O-].[Na+].[Na+] [Salt V] | most stable polymorphs

###

- experiment summary: Dynamic vapour sorption (moisture sorption) with XRPD of post-DVS material
- Format: physicochemical
- measurement parameters: DVS, 25.0 °C, 90% RH
metric name: Moisture Sorption 90% RH (wt %)
// note: answer is a bare numeric in wt %

O=C(O)CNC(=O)c1ncc(-c2cccc(F)c2)cc1O [Form A] | 6.1
O.O=C([O-])CNC(=O)c1ncc(-c2cccc(F)c2)cc1[O-].[Na+].[Na+] [Salt V] | 6.4
O=C(O)CNC(=O)c1ncc(-c2cccc(F)c2)cc1O [Form G] | 7.1
O=C([O-])CNC(=O)c1ncc(-c2cccc(F)c2)cc1O.[Na+] [Salt VIII] | 2.7

# return recorded Moisture Sorption 90% RH for input O=C([O-])CNC(=O)c1ncc(-c2cccc(F)c2)cc1O.[K+] [Salt III] 4.5
